- ASSAY TEXT: AUCinfinity in dog at 1 mg/kg, iv by LC-MS/MS analysis
- Format: ADME, organism-based, Canis lupus familiaris
- CONDITION SET: in vivo
ASSAY METRIC: AUC(0-inf) (ng·h/mL)
Answers are plain numbers, in ng·h/mL.

Query :: Fill in: AUC(0-inf) of Cc1cnc2c(NC(=O)c3cn4cc(C56COC(C)(C5)C6)nc4nc3OC(C)C)cnn2c1 is ___
Result :: 3190

* * *

- ASSAY TEXT: Half life in mouse at 1 mg/kg, iv by LC-MS/MS analysis
- Assay type: ADME, organism-based
- CONDITION SET: in vivo
ASSAY METRIC: half-life (min)
Answers are plain numbers, in min.

Query :: What value of half-life has been recorded for this entry: Cc1cnc2c(NC(=O)c3cn4cc(C56COC(C)(C5)C6)nc4nc3OC(C)C)cnn2c1
Result :: 300
